System: MCF7 breast
Test: NCI tumour cell line growth inhibition, 48 h; in the data active means GI50 below about 0.43 µM; inactive means the rest
Permitted responses: active, inactive

Ask: Look up the recorded call for CCCCc1nc2cc(/C=C/C(=O)NO)ccc2n1CCN(CC)CC in this test.
Reply: active

Ask: Look up the recorded call for COc1ccc(-c2c(C#N)c(N)nc3c2CCCc2ccc(F)cc2-3)cc1OC in this test.
Reply: active

Ask: Look up the recorded call for COc1ccc(-c2nn(-c3cccc(NC(=O)Nc4cccc(C(F)(F)F)c4)c3)cc2-c2ccncc2)cc1Cl in this test.
Reply: inactive

Ask: Look up the recorded call for C=CCNc1cccc2c1C(=O)c1ccccc1C2(O)CC=C (centres undefined) in this test.
Reply: inactive

Ask: Look up the recorded call for O=C1C(=O)c2c(nc3ncccn23)-c2ccccc21 in this test.
Reply: active

Ask: Look up the recorded call for COC(=O)[C@]12CC[C@@H](C)[C@H](C)[C@@H]1C1=CC[C@@H]3[C@@]4(C)C=C(O)C(=O)C(C)=C4CC[C@@]3(C)[C@]1(C)CC2 in this test.
Reply: inactive

Ask: Look up the recorded call for CC12CCC(O)CC1CCC1C2CCC2(C)C(C3=CC(=O)OC3)CCC12 (centres undefined) in this test.
Reply: inactive

Ask: Look up the recorded call for Nc1nc(Nc2ccc3c(c2)CCC(N2CCCC2)CC3)nn1-c1cc2c(nn1)-c1ccccc1CCC2 (centres undefined) in this test.
Reply: inactive

Ask: Look up the recorded call for Nc1c(O)c(S(=O)(=O)O)c(O)c2c1C(=O)c1ccccc1C2=O in this test.
Reply: inactive

---

System: SF-539 CNS
Experiment: NCI tumour cell line growth inhibition, 48 h
experimental endpoint: TGI

Field: example entries. Status: answers known.
> print(dat)
                                        smi  meas.value
1  CC1=N/C(=C\c2ccc([N+](=O)[O-])cc2)C(=O)O1    > 100 µM
2  CC(C)[C@@H](CS(=O)(=O)C(C)C)N1C(=O)[C@@](C)(CC(=O)O)C[C@H](c2cccc(Cl)c2)[C@H]1c1ccc(Cl)cc1     35.9 µM
3        CCOC(=O)/C=C1/Nc2cc(F)c(F)cc2NC1=O    > 100 µM
4  CC1(C)CC[C@]2(C(=O)O)CC[C@]3(C)[C@H](CC[C@@H]4[C@@]5(C)CCC(=O)C(C)(C)[C@@H]5CC[C@]43C)[C@H]2[C@H]1OC(=O)C(F)(F)F     18.1 µM

Could you now look at the following compound, please?
Ask: I'd like to know its TGI. The compound in question is Clc1ccc(Nc2nc3ccccc3c3occc23)cc1
Reply: 17.5 µM

---

Test system: DLD-1 colon
Assay: NCI tumour cell line growth inhibition, 48 h
Items are presented alongside their recorded TGI.

Field: example entries. Status: answers known.
> print(dat)
                                   compound  meas.value
1               O=c1c2cccnc2ncn1CCCN1CCOCC1    > 100 µM
2  CN(C)CCNC(=O)c1cccc2c1nc(-c1ccccn1)c1ccccc12       31 µM
3  O=C1CCC2CCOc3ccc(O)c1c32 (stereo not given)    > 100 µM
4  CC1=C(c2cc(C(=O)Nc3cccc(C(F)(F)F)c3)nc(NC#N)n2)Sc2ccccc2N1    > 100 µM
5    COc1cc(/C=C2\CCc3ccccc3C2=O)cc(OC)c1OC     28.3 µM
6          O=c1cc2cc(O)[nH]c(=O)c2c(O)[nH]1    > 100 µM

Could you now look at the following compound, please?
Ask: Identify the measured TGI of COc1ccc(S(=O)(=O)N/N=C(\C)CN2C(=O)c3ccccc3C2=O)cc1 for DLD-1 colon.
Reply: > 100 µM

---

Items are presented alongside their recorded GI50.
System: NCI/ADR-RES ovarian
Assay: NCI tumour cell line growth inhibition, 48 h

Field: example entries. Status: answers known.
molecule	meas value
O=C(Nc1ccccc1F)c1ccc(NC2=C(Cl)C(=O)N(Cc3ccccc3)C2=O)cc1	11.5 µM
Clc1ccc(Nc2nc3ccccc3c3occc23)cc1	8.7 µM
CC(C)[C@@H](CS(=O)(=O)C(C)C)N1C(=O)[C@@](C)(CC(=O)O)C[C@H](c2cccc(Cl)c2)[C@H]1c1ccc(Cl)cc1	24.7 µM
COC(=O)[C@H](Cc1ccccc1)NC(=O)[C@@H](OC)[C@@H]1Cc2cc3cc(OC4CC(OC5CC(O)C(O)C(C)O5)C(O)C(C)O4)c(C)c(O)c3c(O)c2C(=O)[C@H]1OC1CC(OC2CC(OC3CC(C)(O)C(O)C(C)O3)C(O)C(C)O2)C(O)C(C)O1 (some centres undefined)	4.22 µM
Cc1[nH]nc(C(=O)Nc2n[nH]c3ccccc23)c1[N+](=O)[O-]	> 100 µM
C=C1CO[C@@H]2C[C@@H]1CCC1(C)OC1CC/C(C)=C/CC[C@@]2(C)O (some centres undefined)	32.3 µM

Ask: I'd like to know its GI50. The molecule in question is Cc1ccc(-n2c(-c3ccc(Cl)cc3)cs/c2=N\NC(=O)COc2n[nH]c(=O)c3ccccc23)cc1
Reply: > 100 µM

Ask: I'd like to know its GI50. The molecule in question is COc1ccc(C(=O)N/N=C/c2ccc(O)cc2O)cc1Nc1ccnc(C(F)(F)F)c1
Reply: 11.9 µM

Ask: I'd like to know its GI50. The molecule in question is Nc1c(O)c(S(=O)(=O)O)c(O)c2c1C(=O)c1ccccc1C2=O
Reply: 2.99 µM

---

Items are presented alongside their recorded TGI.
System: A498 renal
Assay: NCI tumour cell line growth inhibition, 48 h
The reply should be a number in µM, with the unit left off.

> print(dat)
                                   compound  experimental.endpoint  units.symbol  meas.value
1  CC(C)C[C@H](NC(=O)[C@H](CCc1ccccc1)NC(=O)c1ccc2ccccc2n1)B(O)O                    TGI            µM        4.38
2  CC12CCC(O)CC1CCC1C2CCC2(C)C(C3=CC(=O)OC3)CCC12 (centres undefined)                    TGI            µM        10.4
3  CC(=O)OC1C(O)C(C)OC(OC(=O)C2CCC3C(C2)OC2(CC(OC(=O)/C=C/c4ccccc4)C(C)CO2)C32CO2)C1OC1OC(C)C(O)C(O)C1O (centres undefined)                    TGI            µM       0.315

Ask: Identify the measured TGI of O=C(O)C(CO)NC(=O)C1C(C(=O)O)C(c2ccccc2[N+](=O)[O-])C=C(c2ccco2)N1c1ccncc1 (centres undefined) for A498 renal.
Reply: 24.8

Ask: Identify the measured TGI of O=C1C(CN2CCCC2)CCCC1CN1CCCC1 (centres undefined) for A498 renal.
Reply: 38.7

Ask: Identify the measured TGI of Nc1nc(Nc2ccc3c(c2)CCC(N2CCCC2)CC3)nn1-c1cc2c(nn1)-c1ccccc1CCC2 (centres undefined) for A498 renal.
Reply: 1.24

---

Test system: OVCAR-3 ovarian
Assay: NCI tumour cell line growth inhibition, 48 h; in the data active means GI50 below about 0.43 µM; inactive means the rest
Permitted responses: t for active, f for inactive

> print(dat)
                                   molecule  label.value
1  CN1c2ccccc2C(C)(C)C12CC(c1ccc(Cl)c(S(=O)(=O)N3CCCC3)c1)=NO2 (stereo unspecified)            f

Ask: Look up the recorded call for NCC(=O)CCC(=O)O in this test.
Reply: f

Ask: Look up the recorded call for CCCCC#Cc1cccc(=O)o1 in this test.
Reply: f

Ask: Look up the recorded call for COc1ccc(C(=O)N/N=C/c2ccc(O)cc2O)cc1Nc1ccnc(C(F)(F)F)c1 in this test.
Reply: t

Ask: Look up the recorded call for COc1cc2c3c(n(C)c(=O)c2cc1OC)-c1cc2c(cc1/C3=C\[C@@H](N)CCCCN)OCO2 in this test.
Reply: f

Ask: Look up the recorded call for C1C[OH+]CC[OH+]CC[OH+]CC[OH+]CC[OH+]CC[OH+]1.[Cl-].[Ta+5] in this test.
Reply: f

---

Test system: A549 NSCLC
Experiment: NCI tumour cell line growth inhibition, 48 h
Items are presented alongside their recorded TGI.

compound	TGI
C[C@@]12CCC[C@@](C)(C(=O)O)C1CC[C@@]13CC(=O)[C@@](CO)(CCC12)C3 (stereo partly specified)	> 100 µM

Ask: I'd like to know its TGI. The compound in question is C=CCNC(=S)OCCCCCCCCCC
Reply: 76.2 µM

Ask: I'd like to know its TGI. The compound in question is Cc1nn(C)c(=O)c2nn(-c3ccccc3)c(C)c12
Reply: > 100 µM

Ask: I'd like to know its TGI. The compound in question is OCCNc1nc2c(N3CCCC3)nc(N3CCNCC3)nc2nc1NCc1ccccc1
Reply: 31.4 µM

Ask: I'd like to know its TGI. The compound in question is COC(=O)[C@H](Cc1ccccc1)NC(=O)[C@@H](OC)[C@@H]1Cc2cc3cc(OC4CC(OC5CC(O)C(O)C(C)O5)C(O)C(C)O4)c(C)c(O)c3c(O)c2C(=O)[C@H]1OC1CC(OC2CC(OC3CC(C)(O)C(O)C(C)O3)C(O)C(C)O2)C(O)C(C)O1 (stereo partly specified)
Reply: > 14.3 µM

Ask: I'd like to know its TGI. The compound in question is COP1(=S)OCC2CCC[C@@H]2O1 (stereo partly specified)
Reply: > 100 µM
